Each entry below carries its recorded pKd.
assayed_system: T1, recombinant human VEGF165 (human, UniProt P15692 207-395)
T1 construct: also called hVEGF165
T1 sequence (P15692 other isoform, or with tags, fused parts or gaps limits assumed): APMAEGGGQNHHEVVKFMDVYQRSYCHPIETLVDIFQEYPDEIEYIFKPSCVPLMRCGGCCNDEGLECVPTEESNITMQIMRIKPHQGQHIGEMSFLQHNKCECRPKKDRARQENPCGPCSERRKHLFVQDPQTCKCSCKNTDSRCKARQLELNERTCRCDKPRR
test_description: SPR (Biacore), antibody captured by anti-human Fc, hVEGF165 in solution
pKd: −log10 of the molar value.
endpoint_label: pKd

binder	endpoint_label	recorded_measurement
CL-34455-IgG (antibody, V domains shown, also called h4G8 CL-34455) VH: EVQLVQSGSELKKPGASVKVSCKASGYTFTNYGMYWVRQAPGQGLEWMGWIDTETGEPTYAQGFTGRFVFSLDTSVSTAYLQISSLKAEDTAVYYCARTNYYYPSYMFYFDYWGQGTMVTVSS VL: EIVLTQSPATLSLSPGERATLSCRASQSVGTHMHWYQQKPGQAPRLLIYGASKLESGVPARFSGSGSGTDFTLTISSLEPEDFAVYYCQQSWYDPLTFGQGTKLEIK	pKd	12.34
CL-34565-IgG (antibody, V domains shown, also called h4G8 CL-34565) VH: EVQLVQSGSELKKPGASVKVSCKASGYTFTDYGMYWVRQAPGQGLEWMGWIDTETGDPTYADDFKGRFVFSLDTSVSTAYLQISSLKAEDTAVYYCARTNYYYRNYMFYFDYWGQGTMVTVSS VL: EIVLTQSPATLSLSPGERATLFCRASQSVSNHMHWYQQKPGQAPRLLIYGASILESGVPARFSGSGSGTDFTLTISSLEPEDFAVYYCQQSWYDPITFGQGTKLEIK	pKd	12.40
CL-34469-IgG (antibody, V domains shown, also called h4G8 CL-34469) VH: EVQLVQSGSELKKPGASVKVSCKASGYTFTNYGMYWVRQAPGQGLEWMGWIDTETGEPTYADDFKGRFVFSLDTSVSTAYLQISSLKAEDTAVYYCARTNYYYRSYMFYFDYWGQGTMVTVSS VL: EIVLTQSPATLSLSPGERATLSCRASQSVSTHMHWYQQKPGQAPRLLIYGASNLESGVPARFSGSGSGTDFTLTISSLEPEDFAVYYCQQSWYDPLTFGQGTKLEIK	pKd	12.21
CL-34538-IgG (antibody, V domains shown, also called h4G8 CL-34538) VH: EVQLVQSGSELKKPGASVKVSCKASGYTFTDYGMYWVRQAPGQGLEWMGWIDTETGEPTYADDFKGRFVFSLDTSVSTAYLQISSLKAEDTAVYYCARTNYYYPSYMFYFDYWGQGTMVTVSS VL: EIVLTQSPATLSLSPGERATLSCRASQSVSTHMHWYQQKPGQAPRLLIYGASNLESGVPARFSGSGSGTDFTLTISSLEPEDFAVYFCQQTWYDPLTFGQGTKLEIK	pKd	12.62
CL-32416-IgG (antibody, V domains shown, also called h4G8 CL-32416) VH: EVQLVQSGSELKKPGASVKVSCKASGYTFTDYGMYWVRQAPGQGLEWMGWIDTETGEPTYADDFKGRFVFSLDTSVSTAYLQISSLKAEDTAVYYCARTNYYYRSYMFYFDYWGQGTMVTVSS VL: EIVLTQSPATLSLSPGERATLSCRASESVSTHMHWYQQKPGQAPRLLIYGASNLESGVPARFSGSGSGTDFTLTISSLEPEDFAVYFCQQSWNDPFTFGQGTKLEIK	pKd	12.27

Taken from patent US20170015742A1.
